particulars: in ethanol, 293.15 K
measurement_name: solubility (mole fraction)
Output spec: single numeric token, no unit.

O=[N+]([O-])c1cc(F)c(F)cc1[N+](=O)[O-] has a reported solubility (mole fraction) of 0.00011

* * *

particulars: in methanol, 318.15 K
measurement_name: solubility (mole fraction)
Kindly provide the number alone.

solubility (mole fraction) recorded for this molecule, O=[N+]([O-])c1cc(F)c(F)cc1[N+](=O)[O-] , is 0.000632

* * *

particulars: in ethanol, 308.15 K
measurement_name: solubility (mole fraction)
Please give only the number in your answer, with no unit.

Item: O=[N+]([O-])c1cc(F)c(F)cc1[N+](=O)[O-] | solubility (mole fraction): 0.000246

* * *

particulars: in methanol, 333.15 K
measurement_name: solubility (mole fraction)
Field format: numeric only.

Given item O=[N+]([O-])c1cc(F)c(F)cc1[N+](=O)[O-] , the value recorded as its solubility (mole fraction) is 0.00121

* * *

particulars: in ethanol, 333.15 K
measurement_name: solubility (mole fraction)
Please state the value as a number alone, without comment.

get_value(item= O=[N+]([O-])c1cc(F)c(F)cc1[N+](=O)[O-] , readout=solubility (mole fraction)) returns 0.00121

* * *

particulars: in m-xylene, 323.15 K
measurement_name: solubility (mole fraction)
Reply briefly: the number, and no unit.

The recorded solubility (mole fraction) for entry O=[N+]([O-])c1cc(F)c(F)cc1[N+](=O)[O-] equals 0.00531

* * *

particulars: in p-xylene, 308.15 K
measurement_name: solubility (mole fraction)
// keep it numeric: no unit symbol after the value

For this molecule ( O=[N+]([O-])c1cc(F)c(F)cc1[N+](=O)[O-] ), measured solubility (mole fraction) is 0.00267

* * *

particulars: in chloroform, 308.15 K
measurement_name: solubility (mole fraction)

The measured solubility (mole fraction) associated with O=[N+]([O-])c1cc(F)c(F)cc1[N+](=O)[O-] reads 0.00156

* * *

particulars: in ethyl formate, 313.15 K
measurement_name: solubility (mole fraction)
# print the numeric value only

solubility (mole fraction) in this record for O=[N+]([O-])c1cc(F)c(F)cc1[N+](=O)[O-] : 0.00402

* * *

particulars: in chloroform, 293.15 K
measurement_name: solubility (mole fraction)

Reported solubility (mole fraction) of O=[N+]([O-])c1cc(F)c(F)cc1[N+](=O)[O-] : 0.000875

* * *

particulars: in isopropanol, 298.15 K
measurement_name: solubility (mole fraction)
A bare number is all that is needed in reply.

Consider O=[N+]([O-])c1cc(F)c(F)cc1[N+](=O)[O-] . Its measured solubility (mole fraction) is 5e-05

* * *

particulars: in n-propanol, 313.15 K
measurement_name: solubility (mole fraction)
Provide a numeric answer; units are not to be included.

The recorded solubility (mole fraction) for entry O=[N+]([O-])c1cc(F)c(F)cc1[N+](=O)[O-] equals 0.000186

* * *

particulars: in m-xylene, 333.15 K
measurement_name: solubility (mole fraction)
Give the figure by itself; no unit, no explanation.

// sample O=[N+]([O-])c1cc(F)c(F)cc1[N+](=O)[O-] , its solubility (mole fraction) was 0.00722

* * *

particulars: in mesitylene, 328.15 K
measurement_name: solubility (mole fraction)
// keep it numeric: no unit symbol after the value

Lab note: measured solubility (mole fraction) of O=[N+]([O-])c1cc(F)c(F)cc1[N+](=O)[O-] was 0.0055
